- Measurement target: human IL-23R (Homo sapiens)
- Construct: UniProtKB—Q5VWK5, amino acids 22-629; secretion signal of the plasmid (Promega N1371); expressed in transfected cells
- Assay notes: Binding assay (NanoBRET displacement of fluorophore-labelled reference compound) for estimating binding affinity to human IL-23R
- Condition context: Table 3-1; read-out: Ki hIL-23R
- Procedure: Binding Assay for Estimating Binding Affinity of Compounds to Human IL-23R The compound binding affinity for IL-23R was estimated by the ability of compounds to displace a fluorophore-labelled reference compound from the human IL-23R. […] The plate was sealed with light impermeable plate seals, and incubated on a orbital shaker 400 rpm for 2 hours at room temperature. […] The BRET ratio was calculated as the fluorescence from the TAMRA/nanoluc bioluminescence. […]
*1 amine or outer side, *2 acyl side, *3 side chain or, on linkers, in order; H or OH if unused. Where a SMILES comes first, the peptide text is derived from it. Bridges are numbered along the chain shown (N, C = ends). [ ]: non-standard residue; d: D form. Phe(3,4-Me2) = Cc1ccc(C[C@H](N)C(=O)O)cc1C; AEF = NCCOc1ccc(C[C@H](N)C(=O)O)cc1; X1 = O=C(Cc1ccc(CN[*:1])cc1)[*:2]; 3Pal = N[C@@H](Cc1cccnc1)C(=O)O; αMeV = CC(C)[C@](C)(N)C(=O)O; Dab = NCC[C@H](N)C(=O)O
Quantity: pKi
Numbers only, as −log10 of the molar value.

Asked: Supply reported pKi belonging to this compound: CC[C@H](C)[C@@H]1NC(=O)Cc2ccc(cc2)CNC(=O)CC[C@@H](C(=O)NCC(=O)N[C@@H](Cc2cccnc2)C(N)=O)NC(=O)[C@](C)(C(C)C)NC(=O)[C@H](Cc2ccc(C)c(C)c2)NC(=O)[C@H](Cc2ccc(OCCN)cc2)NC(=O)[C@@H]2CCNC(=O)CC[C@H](NC1=O)C(=O)N[C@@H](Cc1c[nH]c3ccccc13)C(=O)N[C@@H](CCC(N)=O)C(=O)N2 [Compound 158] ([X1]IEWQ[Dab][AEF][Phe(3,4-Me2)][αMeV]EG[3Pal]-NH2; lactam 3-6, N-10)
Given back: 10.57
